Target: rhesus (Macacca Mulatta) H3 receptor (Macaca mulatta, UniProt Q865E1)
Construct: pcDNA5/FRT/TO (Invitrogen) containing the rhesus monkey (Macacca Mulatta) 445 amino acid H3 receptor
Sequence (Q865E1 1-445): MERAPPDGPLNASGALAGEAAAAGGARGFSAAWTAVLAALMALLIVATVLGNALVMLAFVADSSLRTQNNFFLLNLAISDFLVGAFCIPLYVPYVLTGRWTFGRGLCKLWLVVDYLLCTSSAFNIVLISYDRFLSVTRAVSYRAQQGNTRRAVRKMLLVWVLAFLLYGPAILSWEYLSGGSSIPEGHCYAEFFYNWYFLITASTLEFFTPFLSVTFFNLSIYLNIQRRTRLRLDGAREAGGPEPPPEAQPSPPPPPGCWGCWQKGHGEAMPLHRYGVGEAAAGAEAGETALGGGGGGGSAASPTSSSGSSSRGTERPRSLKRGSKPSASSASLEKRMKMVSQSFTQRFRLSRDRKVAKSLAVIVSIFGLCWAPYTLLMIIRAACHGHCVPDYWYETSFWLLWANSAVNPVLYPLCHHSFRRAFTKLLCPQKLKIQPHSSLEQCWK
Assay: Rhesus H3 [3H]-Methylhistamine radioligand binding assay (SPA)
Set-up: species or system rhesus monkey (Macacca Mulatta)
Conditions: [3H]-Methylhistamine 2 nM, rhesus H3 membranes, Cheng-Prusoff; read-out: Affinity: ki in Rhesus H3 membrane binding ki
Protocol: Rhesus H3 membranes were prepared from the Flp-In T-REx 293 Cell Line (Invitrogen) stably transfected with pcDNA5/FRT/TO (Invitrogen) containing the rhesus monkey (Macacca Mulatta) 445 amino acid H3 receptor. (Genbank #AY231164). Stably transfected cultures were amplified in tissue culture flasks by standard tissue culture methods and induced to express rhesus H3 by exposure to 500 ng/ml tetracycline (Cellgro) for 24 hours. […]
Measure Name: pKi
# reply with the number alone; pKi is -log10 of concentration in mol/L

Task: Provide pKi value for the following compound: Cc1cc(N2CCC(CN3CCCC3C)C2)ccc1NC(=O)c1ccc2c(c1)NC(=O)CNC2=O (stereo not drawn) [Example 13]
Output: 8.03

Task: Supply recorded pKi for Cc1cc(N2CCC(CN3CCCC3C)C2)ccc1NC(=O)c1ccc(CO)cc1 (stereo not drawn) [Example 11] here.
Output: 7.21

Task: Complete the entry with pKi for Cc1cc(N2CCC(CN3CCCC3C)C2)ccc1NC(=O)c1cnc2cc(Cl)ccc2c1O (stereo not drawn) [Example 3]
Output: 7.02

Task: Tell me pKi reported for Cc1nc2cc(C(=O)Nc3ccc(N4CCC(CN5CCCC5C)C4)cc3C)ccc2[nH]1 (stereo not drawn) [Example 1]
Output: 7.80

Task: Output pKi of Cc1cc(N2CCC(CN3CCCC3C)C2)ccc1NC(=O)c1ccc(-n2ccnc2)cc1 (stereo not drawn) [Example 9]
Output: 8.51

Task: Read off the recorded pKi for Cc1ccc2oc(C(=O)Nc3ccc(N4CCC(CN5CCCC5C)C4)cc3C)cc(=O)c2c1 (stereo not drawn) [Example 19]
Output: 7.58

Task: Fill in pKi for record Cc1cc(N2CCC(CN3CCCC3C)C2)ccc1NC(=O)c1ccc(-n2cccc2)nc1 (stereo not drawn) [Example 4]
Output: 7.41

Task: Hello, please tell me recorded pKi for this one: Cc1cc(N2CCC(CN3CCCC3C)C2)ccc1NC(=O)c1ccc2c(c1)C(O)C(O)C(C)(C)O2 (stereo not drawn) [Example 16]
Output: 7.17

Task: Quickly give me recorded pKi for COc1ccc2cc(C(=O)Nc3ccc(N4CCC(CN5CCCC5C)C4)cc3C)oc2c1 (stereo not drawn) [Example 15]
Output: 7.18
